The reported numbers originate from patent US5834461A.

target: vasopressin V1 receptor (rat liver plasma membranes) (Rattus norvegicus); test: Binding Assay to Rat Hepatic V1 Receptors; conditions: rat hepatic V1
Sequence (P30560 whole entry): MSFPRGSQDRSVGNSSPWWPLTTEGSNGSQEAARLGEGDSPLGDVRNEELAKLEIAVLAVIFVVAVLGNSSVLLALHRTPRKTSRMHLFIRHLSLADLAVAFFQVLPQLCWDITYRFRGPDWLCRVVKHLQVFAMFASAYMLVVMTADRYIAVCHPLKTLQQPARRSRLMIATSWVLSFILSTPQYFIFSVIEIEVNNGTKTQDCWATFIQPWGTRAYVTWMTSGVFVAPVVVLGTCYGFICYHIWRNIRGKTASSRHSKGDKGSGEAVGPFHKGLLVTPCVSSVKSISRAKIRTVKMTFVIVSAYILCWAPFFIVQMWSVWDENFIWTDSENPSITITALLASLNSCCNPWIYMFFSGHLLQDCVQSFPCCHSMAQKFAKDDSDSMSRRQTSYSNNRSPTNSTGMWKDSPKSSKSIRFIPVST
Reported Property: pIC50
Scale: pIC50 equals -log10([C]), with [C] in mol/L.

Please review the following examples before continuing.
- Compound: "Cc1ccsc1C(=O)Nc1ccc(C(=O)N2Cc3ccccc3-c3ccccc32)cc1"
  pIC50: 6.77
- Compound: "Cc1ccccc1C(=O)Nc1ccc(C(=O)N2Cc3ccccc3Sc3ccccc32)cc1"
  pIC50: 6.39

Hello, please tell me recorded pIC50 for this one: `Cc1ccsc1C(=O)Nc1ccc(C(=O)N2Cc3ccccc3Cc3ccccc32)cc1`
7.08

Hello, please tell me recorded pIC50 for this one: `Cc1cc(C(=O)N2Cc3ccccc3Cc3ccccc32)cc(C)c1NC(=O)c1ccc(Cl)cc1Cl`
5.40

Hello, please tell me recorded pIC50 for this one: `Cc1cccc(C(=O)Nc2ccc(C(=O)N3Cc4ccccc4Cc4ccccc43)cc2)c1C`
6.80

====

pIC50: recorded values
target: vasopressin V1 receptor (rat liver plasma membranes) (Rattus norvegicus); assay: Binding Assay to Rat Hepatic V1 Receptors; conditions: rat hepatic V1
Scale: pIC50 equals -log10([C]), with [C] in mol/L.

- Compound: "Cc1ccccc1C(=O)Nc1ccc(C(=O)N2Cc3cc(Cl)ccc3Oc3ccccc32)cc1 [Example 4]"
  pIC50: 5.82
- Compound: "Cc1cccc(NC(=O)c2ccc(C(=O)N3Cc4ccccc4Cc4ccccc43)cc2)c1C [Example 124]"
  pIC50: 5.92
- Compound: "Cc1ccccc1C(=O)N(CN(C)C)c1ccc(C(=O)N2Cc3ccccc3Cc3ccccc32)cc1 [Example 267]"
  pIC50: 7.59

Hello, please tell me recorded pIC50 for this one: O=C(Nc1ccc(C(=O)N2Cc3ccccc3Cc3ccccc32)cc1)c1ccccc1C(F)(F)F [Example 166]
7.08

====

molecular target: vasopressin V1 receptor subtype in human platelet membranes (Homo sapiens, UniProt P37288); construct: tissue Hudson Valley Blood Services; assay: Binding to Vasopressin V1 Receptor Subtype in Human Platelet Membranes; settings: human platelet V1 (*)
Sequence (P37288 whole entry): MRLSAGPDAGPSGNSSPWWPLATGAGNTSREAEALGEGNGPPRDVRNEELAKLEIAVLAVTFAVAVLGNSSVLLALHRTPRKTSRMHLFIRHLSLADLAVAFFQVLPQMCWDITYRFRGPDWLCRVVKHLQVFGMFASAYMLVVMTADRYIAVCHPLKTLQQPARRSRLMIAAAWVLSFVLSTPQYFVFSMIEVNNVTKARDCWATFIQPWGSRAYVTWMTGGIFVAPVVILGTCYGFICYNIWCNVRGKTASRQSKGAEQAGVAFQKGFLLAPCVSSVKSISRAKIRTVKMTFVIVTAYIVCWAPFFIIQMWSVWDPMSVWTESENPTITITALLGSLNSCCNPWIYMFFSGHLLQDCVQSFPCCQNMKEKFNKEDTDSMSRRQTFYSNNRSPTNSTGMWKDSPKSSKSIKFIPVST
pIC50: recorded values
Scale: pIC50 equals -log10([C]), with [C] in mol/L.

Please review the following examples before continuing.
- Compound: "Cc1c(F)cccc1C(=O)Nc1ccc(C(=O)N2Cc3ccccc3Cc3ccccc32)cc1Cl [Example 262]"
  Target Entity: "vasopressin V1 receptor subtype in human platelet membranes (Homo sapiens, UniProt P37288)"
  Reported Property: "pIC50"
  Observed Measurement: 6.21
- Compound: "COc1cc(C(=O)N2Cc3ccccc3Cc3ccccc32)ccc1NC(=O)c1ccccc1C [Example 257]"
  Target Entity: "vasopressin V1 receptor subtype in human platelet membranes (Homo sapiens, UniProt P37288)"
  Reported Property: "pIC50"
  Observed Measurement: 7.80
- Compound: "Cc1ccccc1C(=O)Nc1ccc(C(=O)N2Cc3ccsc3Cc3ccccc32)cc1 [Example 456]"
  Target Entity: "vasopressin V1 receptor subtype in human platelet membranes (Homo sapiens, UniProt P37288)"
  Reported Property: "pIC50"
  Observed Measurement: 7.44
- Compound: "Cc1ccc(F)cc1C(=O)Nc1ccc(C(=O)N2CCc3c[nH]nc3-c3ccccc32)cc1 [Example 584]"
  Target Entity: "vasopressin V1 receptor subtype in human platelet membranes (Homo sapiens, UniProt P37288)"
  Reported Property: "pIC50"
  Observed Measurement: 7.55
- Compound: "Cc1ccccc1C(=O)Nc1ccc(C(=O)N2Cc3sccc3Cc3ccccc32)cc1 [Example 458]"
  Target Entity: "vasopressin V1 receptor subtype in human platelet membranes (Homo sapiens, UniProt P37288)"
  Reported Property: "pIC50"
  Observed Measurement: 8.74
- Compound: "COc1cc(C(=O)N2Cc3ccccc3Cc3ccccc32)ccc1NC(=O)c1ccc(Cl)cc1Cl [Example 263]"
  Target Entity: "vasopressin V1 receptor subtype in human platelet membranes (Homo sapiens, UniProt P37288)"
  Reported Property: "pIC50"
  Observed Measurement: 6.37
- Compound: "Cc1c(F)cccc1C(=O)Nc1ccc(C(=O)N2Cc3ccccc3Cc3ccccc32)c(Cl)c1 [Example 264]"
  Target Entity: "vasopressin V1 receptor subtype in human platelet membranes (Homo sapiens, UniProt P37288)"
  Reported Property: "pIC50"
  Observed Measurement: 6.01

# assay system vasopressin V1 receptor subtype in human platelet membranes (Homo sapiens, UniProt P37288): give pIC50 of Cc1nc2c(s1)CCN(C(=O)c1ccc(NC(=O)c3ccc(Cl)cc3Cl)cc1)c1ccccc1-2 [Example 455]
6.60
